Data credit: patent US20240117334A1

Quick list: fB Cleavage EC50 per entry.
- system: Human Factor B (human) (UniProt P00751)
- Sequence (P00751 26-764 limits assumed): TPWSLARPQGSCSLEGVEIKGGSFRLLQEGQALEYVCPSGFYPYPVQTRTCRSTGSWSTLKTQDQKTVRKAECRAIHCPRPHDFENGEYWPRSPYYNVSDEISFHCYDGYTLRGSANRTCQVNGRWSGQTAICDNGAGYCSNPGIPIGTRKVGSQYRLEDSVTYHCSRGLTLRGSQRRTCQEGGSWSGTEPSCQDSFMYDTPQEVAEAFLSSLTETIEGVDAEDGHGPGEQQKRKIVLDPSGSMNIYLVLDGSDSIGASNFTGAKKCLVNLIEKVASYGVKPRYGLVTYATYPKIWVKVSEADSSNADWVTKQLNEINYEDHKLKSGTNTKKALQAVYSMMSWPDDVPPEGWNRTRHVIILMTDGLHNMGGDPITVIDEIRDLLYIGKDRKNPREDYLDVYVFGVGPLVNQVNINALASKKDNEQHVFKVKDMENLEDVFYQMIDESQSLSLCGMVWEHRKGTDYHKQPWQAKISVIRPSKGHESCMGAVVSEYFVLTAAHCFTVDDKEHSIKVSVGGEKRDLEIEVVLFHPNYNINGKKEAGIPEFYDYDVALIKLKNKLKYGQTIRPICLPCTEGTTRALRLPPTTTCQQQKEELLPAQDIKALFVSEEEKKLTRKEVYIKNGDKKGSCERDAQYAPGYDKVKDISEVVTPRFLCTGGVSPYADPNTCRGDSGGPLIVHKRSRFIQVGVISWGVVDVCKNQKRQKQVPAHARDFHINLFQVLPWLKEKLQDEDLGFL
- test_method_notes: cell-based or functional assay
Reply numerically in nM, unit not repeated.

Data request, read-out fB Cleavage EC50, for chymase C22S/P38Q/V138I/A226R/F228A (enzyme) IIGGTESKPHSRPYMAYLEIVTSNGQSKFCGGFLIRRNFVLTAAHCAGRSITVTLGAHNITEEEDTWQKLEVIKQFRHPKYNTSTLHHDIMLLKLKEKASLTLAVGTLPFPSQFNFVPPGRMCRIAGWGRTGVLKPGSDTLQEVKLRLMDPQACSHFRDFDHNLQLCVGNPRKTKSAFKGDSGGPLLCAGVAQGIVSYGRSDAKPPRVATRISHYRPWINQILQAN
12400

Data request, read-out fB Cleavage EC50, for chymase C22S/P38Q/K40M/F41R/L99M/F173Y/D175N/V213Q/S218V/A226R/F228A (enzyme) IIGGTESKPHSRPYMAYLEIVTSNGQSMRCGGFLIRRNFVLTAAHCAGRSITVTLGAHNITEEEDTWQKLEVIKQFRHPKYNTSTMHHDIMLLKLKEKASLTLAVGTLPFPSQFNFVPPGRMCRVAGWGRTGVLKPGSDTLQEVKLRLMDPQACSHYRNFDHNLQLCVGNPRKTKSAFKGDSGGPLLCAGVAQGIQSYGRVDAKPPRVATRISHYRPWINQILQAN
788

Shift focus to the following entry.
Data request, read-out fB Cleavage EC50, for chymase C22S/P38Q/K40A/F41R/L99Y/V138I/F173L/D175R/A190S/V213A/S218L/A226R (enzyme) IIGGTESKPHSRPYMAYLEIVTSNGQSARCGGFLIRRNFVLTAAHCAGRSITVTLGAHNITEEEDTWQKLEVIKQFRHPKYNTSTYHHDIMLLKLKEKASLTLAVGTLPFPSQFNFVPPGRMCRIAGWGRTGVLKPGSDTLQEVKLRLMDPQACSHLRRFDHNLQLCVGNPRKTKSSFKGDSGGPLLCAGVAQGIASYGRLDAKPPRVFTRISHYRPWINQILQAN
511
